// provenance: patent US20130309248A1

molecular target: HA of virus A/Panama/2000/1999 (H3N2) (influenza A virus (H3N2)); test: cell-based or functional assay
# Lookup of reported Neutralization titer SK50 keyed by entry
Number in µg/mL, nothing else.

binder	Neutralization titer SK50 [µg/mL]
CR8039 (antibody, V domains shown) VH: QLQLQESGPGLVKPSETLSLTCTVSGGSIGSYYWSWIRQPPGKGLEWIGYIYYRGGTSYNPSLKSRVTISVDTSKSQFTLKLNSVTAADTAVYYCARKDWGSAAGSVWYFDL VL: QSALTQPPSASGSPGQSVTISCTGTSSDVGGYNYVSWYQQHPGKAPKLMIREVSKRPSGVPDRFSGSKSGNTASLTVSGLQAEDEAEYYCSSYAGSNNLI	4.6

Data request: Report Neutralization titer SK50 for CR8050 (antibody, V domains shown) VH: EIVMTQSPGTLSLSPGERATLSCRASQSVSRNYLAWYQQKPGLAPRLLISGASSRATGVPDRFSGRGSDTDFTLTISRLEPEDFAVYYCQHYGSVLVA VL: QVQLQESGPGLVKPSETLSLTCTVSGGSVSSGTYYWSWIRQPPGKGLEWIGDISYSGSTNYNPSLKSRVTISRDTSKNLVSLKLTSVTAADTAVHYCARAMAAYNYDRGGYNDYYYMDV please.
Data returned: 6.5
